Target: Estrogen receptor beta (Homo sapiens)
Test: ATG_hERb_XSP2: Attagene TRANS-FACTORIAL Multi-Species (XSP2) HepG2 Assay for human Estrogen Receptor (ERb) (AID 2283813);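 also: actives raise reporter mRNA above DMSO so AC50 reflects agonist induction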
Results filed as inconclusive are left out. Activity calls are given as the source filed them. The calls were made as follows: active = hit-call score of the fitted dose curve at least 0.9, where 1 is the maximum; inconclusive = response in the unintended direction; inactive = score below 0.9.
# output must be one of t for active, f for inactive

# count of solved cases: 3
SMILES_TEXT	ASSAYED_TARGET	ANSWER_LABEL
CCCN(CCOc1c(Cl)cc(Cl)cc1Cl)C(=O)n1ccnc1	Estrogen receptor beta (Homo sapiens)	f
Oc1ccc(Cl)cc1Cc1ccccc1	Estrogen receptor beta (Homo sapiens)	f
O=C(O)C(F)(F)C(F)(F)C(F)(F)C(F)(F)C(F)(F)C(F)(F)C(F)(F)F	Estrogen receptor beta (Homo sapiens)	t

Kindly consider the entry below.
Challenge: Hi team, can someone confirm the assay call for COP(=S)(OC)Oc1ccc(SC)c(C)c1 ?
Response given: f

* * *

Molecular target: Transcription factor E2F1 (Homo sapiens) (UniProt Q01094)
Sequence (Q01094 whole entry, looked up): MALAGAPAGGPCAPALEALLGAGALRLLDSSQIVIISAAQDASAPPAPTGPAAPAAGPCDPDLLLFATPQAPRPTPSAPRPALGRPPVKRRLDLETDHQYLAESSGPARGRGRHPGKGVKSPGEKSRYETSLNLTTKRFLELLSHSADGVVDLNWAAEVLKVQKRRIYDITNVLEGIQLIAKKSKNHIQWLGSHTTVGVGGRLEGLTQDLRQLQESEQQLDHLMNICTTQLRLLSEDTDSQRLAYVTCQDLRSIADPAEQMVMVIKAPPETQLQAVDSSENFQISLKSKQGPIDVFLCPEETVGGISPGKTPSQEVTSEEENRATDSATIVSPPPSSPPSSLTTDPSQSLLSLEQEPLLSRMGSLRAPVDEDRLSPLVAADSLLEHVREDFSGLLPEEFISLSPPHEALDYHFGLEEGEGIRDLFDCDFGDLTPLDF
Experiment: ATG_E2F_CIS: Attagene CIS-FACTORIAL HepG2 Assay for human E2F Transcription Factor 1 (AID 2282935)
Conditions: HepG2 Attagene cis-reporter, E2F reporter RNA transcripts; actives raise or lower the signal
Active and inactive are the calls of the source. Rule for the calls: active = hit-call score of the fitted dose curve at least 0.9, where 1 is the maximum; inactive = score below 0.9.
# output must be one of active, inactive

COMPOUND	ASSAYED_TARGET	ANSWER_LABEL
COP(=S)(OC)Oc1ccc([N+](=O)[O-])cc1	Transcription factor E2F1 (Homo sapiens) (UniProt Q01094)	inactive
O=C(O)CCCOc1ccc(Cl)cc1Cl	Transcription factor E2F1 (Homo sapiens) (UniProt Q01094)	inactive
CN1CSC(=S)N(C)C1	Transcription factor E2F1 (Homo sapiens) (UniProt Q01094)	inactive

Challenge: Hi team, can someone confirm the assay call for ClC1C(Cl)C(Cl)C(Cl)C(Cl)C1Cl (configuration not stated) ?
Response given: inactive

Challenge: Same thing, different compound: C[C@H]1[C@H](c2ccc(Cl)cc2)SC(=O)N1C(=O)NC1CCCCC1
Response given: active

Challenge: Same thing, different compound: Clc1ccccc1-c1nnc(-c2ccccc2Cl)nn1
Response given: inactive

Challenge: Same thing, different compound: COC(=O)c1ccccc1S(=O)(=O)NC(=O)Nc1nc(C)nc(OC)n1
Response given: inactive

Challenge: Same thing, different compound: O=C(Nc1ccccc1)Nc1cnns1
Response given: inactive

Challenge: Same thing, different compound: O=C(O)C(F)(F)C(F)(F)C(F)(F)C(F)(F)C(F)(F)C(F)(F)C(F)(F)F
Response given: inactive

Challenge: Same thing, different compound: CNC(=O)Oc1ccccc1OC(C)C
Response given: inactive

Challenge: Same thing, different compound: CC1(C)C(C=C(Cl)Cl)C1C(=O)OC(C#N)c1ccc(F)c(Oc2ccccc2)c1 (configuration not stated)
Response given: inactive

Challenge: Same thing, different compound: CNC(=O)CSP(=S)(OC)OC
Response given: inactive

* * *

Assay: BSK_SAg_PBMCCytotoxicity: PBMC Cytotoxicity Assessment in the BioMAP Diversity Plus: SAg Assay (AID 2283093);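 also: PBMC viability measured as Alamar Blue reduction fluorescence at 546/580 nm; fitted both ways against DMSO so a hit may be loss or gain of signal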
Settings: primary human HUVEC with PBMC
The source made the active and inactive calls. Rule for the calls: active = hit-call score of the fitted dose curve at least 0.9, where 1 is the maximum; inactive = score below 0.9.
# output must be one of active, inactive

Challenge: Hi team, can someone confirm the assay call for O=C(NC(=O)c1c(F)cccc1F)Nc1ccc(OC(F)(F)C(F)OC(F)(F)F)c(Cl)c1 (centres undefined) ?
Response given: active

Challenge: Same thing, different compound: CCC(C)(NC(=O)c1cc(Cl)c(C)c(Cl)c1)C(=O)CCl (centres undefined)
Response given: active

Challenge: Same thing, different compound: CCCN(CCC)c1c([N+](=O)[O-])cc(C(F)(F)F)cc1[N+](=O)[O-]
Response given: active

Challenge: Same thing, different compound: CNC(=O)Oc1ccccc1OC(C)C
Response given: inactive

Challenge: Same thing, different compound: COP(=O)(OC)OC=C(Cl)Cl
Response given: inactive

Challenge: Same thing, different compound: CCS(=O)(=O)c1cccnc1S(=O)(=O)NC(=O)Nc1nc(OC)cc(OC)n1
Response given: inactive

Challenge: Same thing, different compound: N#Cc1c(Cl)c(Cl)c(Cl)c(C#N)c1Cl
Response given: active

Challenge: Same thing, different compound: CCC(C)Nc1c([N+](=O)[O-])cc(C(C)(C)C)cc1[N+](=O)[O-] (centres undefined)
Response given: active

Challenge: Same thing, different compound: CC[C@H](C)[C@H]1O[C@]2(C=C[C@@H]1C)C[C@@H]1C[C@@H](C/C=C(\C)[C@@H](O[C@H]3C[C@H](OC)[C@@H](O[C@H]4C[C@H](OC)[C@@H](O)[C@H](C)O4)[C@H](C)O3)[C@@H](C)/C=C/C=C3\CO[C@@H]4[C@H](O)C(C)=C[C@@H](C(=O)O1)[C@]34O)O2 (tested in a mixture with another compound)
Response given: active
